Reference for the values: the CheMixHub drug solubility set

Catalogue of compounds with associated solubility (g/100 g solution)
RUN_DESCRIPTION: xn = mol fraction of the nth substance listed, in the solute-free solvent
TEST_SETTINGS: 288.15 K; x2 = 0.2812

Here are 4 compounds together with their reported answers.
>>> measured_result("Nc1ncc(Br)nc1Br + CCO + O")
0.304
>>> measured_result("Nc1cc(-c2ccncc2)c[nH]c1=O + CCO + O")
0.00709
>>> measured_result("CC(C)C(=O)Nc1ccc([N+](=O)[O-])c(C(F)(F)F)c1 + CCO + O")
1.34
>>> measured_result("O=C1C=CC(=O)N1c1ccccc1Br + CCO + O")
5.21

Next:
What value of measured solubility (g/100 g solution) is listed for O=c1cc(CBr)c2ccccc2[nH]1 + CCO + O ? 0.0837
